assay: Caco-2 cell permeability flux assay; format: in vitro ADME; conditions: human, 37 °C, mean of at least two assays

molecule	measureUnit	Papp B→A at 2 h, 2 μM
CNC(=O)[C@@H](N)CCN(C(=O)CO)[C@@H](c1cc(-c2cc(F)ccc2F)cn1Cc1ccccc1)C(C)(C)C [Compound 11]	×10⁻⁶ cm/s	30.3
CC(C)(C)[C@H](c1cc(-c2cc(F)ccc2F)cn1Cc1ccccc1)N(CCCN)C(=O)CO [Compound 10]	×10⁻⁶ cm/s	18

###

IC50 for assorted molecules
test system: 786-O (human RCC) cells; assay: In vitro cytotoxicity, MTT assay, in absence or presence of neutrophil elastase; format: cell-based; settings: Homo sapiens, 786-0, 72 h exposure, without neutrophil elastase, read-out: IC50 786–0
Where a SMILES comes first, the peptide text is derived from it. [ ]: non-standard residue; d: D form. The star is where a group is joined. Dolaproine = CO[C@@H]([C@@H]1CCCN1)[C@@H](C)C(=O)O; Dil = CC[C@H](C)[C@H](NC)[C@@H](CC(=O)O)OC; X1 = C[C@@H](N*)[C@@H](O)c1ccccc1; NMeV = CN[C@H](C(=O)O)C(C)C
outcomeMeasure: IC50 (nM)

molecule	number
CC(C)(C)[C@H](c1cc(-c2cc(F)ccc2F)cn1Cc1ccccc1)N(CCCN)C(=O)CO [Compound 10]	2.5
CCc1c2c(nc3ccccc13)-c1cc3c(c(=O)n1C2)COC(=O)[C@]3(O)CC [Compound 7, 7-ethyl camptothecin, reference compound]	3.7
CNC(=O)[C@@H](N)CCN(C(=O)CO)[C@@H](c1cc(-c2cc(F)ccc2F)cn1Cc1ccccc1)C(C)(C)C [Compound 11]	6
CC[C@H](C)[C@@H]([C@@H](CC(=O)N1CCC[C@H]1[C@H](OC)[C@@H](C)C(=O)N[C@H](C)[C@@H](O)c1ccccc1)OC)N(C)C(=O)[C@@H](NC(=O)[C@@H](NC)C(C)C)C(C)C [Compound 9, reference compound] (H-[NMeV]V[Dil][Dolaproine]-X1)	5.9
